Values compiled from patent US20230123178A1.

targetEntity: full-length human PD1 on cells (human, UniProt Q15116 25-288)
Sequence (Q15116 25-288 limits assumed): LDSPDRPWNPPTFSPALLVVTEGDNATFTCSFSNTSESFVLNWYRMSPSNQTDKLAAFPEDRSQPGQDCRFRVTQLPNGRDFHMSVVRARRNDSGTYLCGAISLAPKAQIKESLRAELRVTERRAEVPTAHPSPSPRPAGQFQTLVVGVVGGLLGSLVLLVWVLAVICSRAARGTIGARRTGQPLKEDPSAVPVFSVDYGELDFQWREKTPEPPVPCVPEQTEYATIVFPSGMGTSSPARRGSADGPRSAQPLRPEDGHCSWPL
assayMethodText: cell-based or functional assay
testReadout: Percentage of IFN gamma secretion in MLR against rec hu IL-2 (=100%), dilution 1:120
The answer is to be given in %; state only the numeric part.

# count of solved cases: 3
binder	unitTag	measured
PD1-0050 (antibody, V domains shown) VH: DVQLQESGPGLVKPSQSLSLTCTVTGYSITSDYAWNWIRQFPGNKLEWMGYITYTGRTSYNPSLKSRISITRDTSKNQFFLQLNSVTTEDTATYYCAREMDYYGSTLDYWGQGTTLTVSS VL: KIVLTQSPASLAVSLRQRATISCRASESVDRYGNSFIHWYQQKPGQPPKVLIYRASNLESGFPARFSGSGSRTDFTLTIDPVEADDAATYYCQQNNEDPYTFGSGTKLEIK	%	96
PD1-0069 (antibody, V domains shown) VH: QVQLQQSGPELVRPGVSVKISCKGSGYTFTDYAMHWVKQSHARTLEWIGVISTYSGDTNYNQKFKDKATMTVDKSSSTAYLELARMTSEDSAIYYCARLGITTGFAYWGQGTLVTVSA VL: DIVLTQSPASLAVSLGQRATISCRASKGVSTSSYSFMHWYQQKPRQPPKLLIKYASYLESGVPARFSGSGSGTDFTLNIHPVEEEDAATYYCHHSREFPWTFGGGTKLEIK	%	71
PD1-0073 (antibody, V domains shown) VH: EVKLVESGGGLVKPGGSLKLSCAASGFTFSNYGMSWIRQTPEKGLEWVATISGGGRDTYYPDSVKGRFTISRDNVKNNLYLQMSSLRSEDTAFYYCASYYYGIDYWGQGTSVTVSS VL: DIVMTQPHKFMSTSVGDRVRITCKASQDVTTAVAWYQQKPGQSPKLLIYWASTRHTGVPDRFTGSGSGTEFTLTISSVQAEDLALYYCQQHYSIPWTFGGGTKLEIK	%	63

// switching to the query binder
Ask: Give the measured Percentage of IFN gamma secretion in MLR against rec hu IL-2 (=100%), dilution 1:120 of PD1-0078 (antibody, V domains shown) VH: QVQLQQPGAELVKPGASVKMSCKASGYTFTSTWMHWVKQRPGQGLEWIGAIDPSDSYTTYNQKFKGKATLTVDTSSTTAYMQLSSLTSEDSAVYYCTRSPFDYWGQGTTLTVSS VL: DIVMTQSHKFMSTSVGDRVSITCKASQDVSTAVAWYQQKPGQSPKLLIYSASYRYTGVPDRFTGSGSGTDFTFAISSVQAEDLAVYYCQQHYSHPFTFGSGTKLEIK .
Result: 72
